# Species: Homo sapiens
# assay.procedure: Selectivity index, ratio of Ki for human recombinant CB2 receptor to Ki for human recombinant CB1 receptor
Is Ratio Ki at least 2? Then rule met. If not, rule not met.

The following molecules have reported results that may help.
Cc1c(C(=O)NCCc2ccc(Cl)c(Cl)c2)nn(-c2ccc(Cl)cc2Cl)c1-n1cccc1 ... rule met
Cc1c(C(=O)NCc2ccc(Cl)cc2)nn(-c2ccc(Cl)c(Cl)c2)c1-n1c(C)ccc1C ... rule met
COc1cc(CNC(=O)c2nn(-c3ccc(F)cc3F)c(-n3c(C)ccc3C)c2C)c(Br)c(OC)c1OC ... rule met
Cc1c(C(=O)NC2CCCCCC2)nn(-c2ccc(F)cc2F)c1-n1cccc1 ... rule not met
Cc1c(C(=O)NC2CCCC2)nn(-c2ccc(Cl)c(Cl)c2)c1-n1c(C)ccc1C ... rule not met
COc1cc(CNC(=O)c2nn(-c3ccc(Cl)cc3Cl)c(-n3cccc3)c2C)c(Br)c(OC)c1OC ... rule met
Cc1c(C(=O)Nc2ccc(Cl)cc2)nn(-c2ccc(Cl)cc2Cl)c1-n1c(C)ccc1C ... rule met
Cc1c(C(=O)NCCc2ccc(Cl)cc2)nn(-c2ccc(Cl)cc2Cl)c1-n1cccc1 ... rule met
COc1ccc(CCNC(=O)c2nn(-c3ccc(Cl)cc3Cl)c(-n3cccc3)c2C)cc1Cl ... rule met
Cc1c(C(=O)NC2CCCC2)nn(-c2ccc(F)cc2F)c1-n1c(C)ccc1C ... rule not met

Asked: Is Ratio Ki for Cc1c(C(=O)NC(C)c2ccccc2)nn(-c2ccc(Cl)c(Cl)c2)c1-n1c(C)ccc1C (centres undefined) at or above 2?
Given back: rule not met

Asked: Is Ratio Ki for Cc1c(C(=O)NCCc2ccc(Cl)cc2)nn(-c2ccc(F)cc2F)c1-n1c(C)ccc1C at or above 2?
Given back: rule met

Asked: Is Ratio Ki for Cc1c(C(=O)Nc2ccc(Cl)cc2)nn(-c2ccc(F)cc2F)c1-n1cccc1 at or above 2?
Given back: rule met

Asked: Is Ratio Ki for Cc1c(C(=O)NCc2ccc(Cl)c(Cl)c2)nn(-c2ccc(Cl)cc2Cl)c1-n1c(C)ccc1C at or above 2?
Given back: rule met

Asked: Is Ratio Ki for Cc1c(C(=O)NCc2ccc(Cl)cc2)nn(-c2ccc(Cl)c(Cl)c2)c1-n1cccc1 at or above 2?
Given back: rule not met

Asked: Is Ratio Ki for Cc1c(C(=O)NCCc2ccc(Cl)c(Cl)c2)nn(-c2ccc(F)cc2F)c1-n1c(C)ccc1C at or above 2?
Given back: rule met

---

# tested.system: Cannabinoid receptor 1 (Homo sapiens, UniProt P21554)
# Sequence (P21554 whole entry): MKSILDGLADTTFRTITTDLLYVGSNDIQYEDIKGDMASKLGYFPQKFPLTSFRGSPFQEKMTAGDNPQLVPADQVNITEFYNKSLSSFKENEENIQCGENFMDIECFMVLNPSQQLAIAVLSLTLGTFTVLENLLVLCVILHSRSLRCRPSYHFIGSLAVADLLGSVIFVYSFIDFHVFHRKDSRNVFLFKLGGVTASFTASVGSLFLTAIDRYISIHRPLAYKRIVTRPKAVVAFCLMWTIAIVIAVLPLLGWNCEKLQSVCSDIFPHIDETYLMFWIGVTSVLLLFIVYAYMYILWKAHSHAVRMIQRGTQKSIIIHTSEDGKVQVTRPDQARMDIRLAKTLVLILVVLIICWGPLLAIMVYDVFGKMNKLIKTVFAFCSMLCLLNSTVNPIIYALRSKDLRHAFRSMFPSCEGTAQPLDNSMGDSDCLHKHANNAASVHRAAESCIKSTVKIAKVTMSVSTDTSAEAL
So basically, if Ki comes in under 70 nM it's criterion met, and if it's 70 nM or more it's criterion not met.

The following molecules have reported results that may help.
Cc1c(C(=O)NC2CCCCCC2)nn(-c2ccc(Cl)cc2Cl)c1-n1c(C)ccc1C ... criterion met
Cc1c(C(=O)NC(c2ccccc2)c2ccc(Cl)cc2)nn(-c2ccc(Cl)c(Cl)c2)c1-n1c(C)ccc1C (centres undefined) ... criterion not met
COc1cc(CNC(=O)c2nn(-c3ccc(F)cc3F)c(-n3cccc3)c2C)c(Br)c(OC)c1OC ... criterion not met

Asked: Does this molecule meet the criterion Ki < 70 nM? Cc1c(C(=O)NC2CCCC2)nn(-c2ccc(Cl)cc2Cl)c1-n1c(C)ccc1C
Given back: criterion not met

Asked: Does this molecule meet the criterion Ki < 70 nM? Cc1c(C(=O)Nc2ccc(Cl)cc2)nn(-c2ccc(Cl)cc2Cl)c1-n1cccc1
Given back: criterion not met

Asked: Does this molecule meet the criterion Ki < 70 nM? Cc1c(C(=O)N[C@H](C)C2CCCCC2)nn(-c2ccc(Cl)c(Cl)c2)c1-n1cccc1
Given back: criterion met

Asked: Does this molecule meet the criterion Ki < 70 nM? Cc1c(C(=O)NCc2ccc(Cl)cc2)nn(-c2ccc(Cl)cc2Cl)c1-n1c(C)ccc1C
Given back: criterion not met

Asked: Does this molecule meet the criterion Ki < 70 nM? Cc1c(C(=O)NCc2ccc(Cl)cc2)nn(-c2ccc(F)cc2F)c1-n1cccc1
Given back: criterion not met

Cited source: ChEMBL document CHEMBL1154113
